System: HepG2 cells
Assay: Antiproliferative assay in vitro (SRB), 72 h
Format: cell-based, human
Settings: liver cancer cells, 72 h exposure, mean ± SD
Endpoint name: pIC50
Give bare numbers, as −log10 of the molar value.

I would be grateful if you could share the reported pIC50 for N.N.[Cl][Pt][Cl] [Cisplatin, cisplatin, reference compound] .
5.62

###

Tested on: LoVo/DX cells
Assay: Antiproliferative assay in vitro (SRB), 72 h
Assay type: cell-based, human
Conditions: doxorubicin-resistant LoVo/DX cell line versus LoVo
Would you mind telling me the reported Resistance index (RI) of each entry?
One number for each entry.

Examples with their reported Resistance index (RI) follow.
CCCCCCCCCCCCCCCC(=O)OC[C@H](COP(=O)([O-])OCC[N+](C)(C)C)OC(=O)C=Cc1ccccc1 [Compound 5a] :: 1.08
C[N+](C)(C)CCOP(=O)([O-])OC[C@@H](COC(=O)C=Cc1ccccc1)OC(=O)C=Cc1ccccc1 [Compound 3a] :: 1.65

Please turn your attention to the following entry.
I would be grateful if you could share the reported Resistance index (RI) for COc1cccc2c1C(=O)c1c(O)c3c(c(O)c1C2=O)C[C@@](O)(C(=O)CO)C[C@@H]3O[C@H]1C[C@H](N)[C@H](O)[C@H](C)O1 [Doxorubicin, doxorubicin, reference compound] .
55.81

Source listed as paper PMC9088016.
